Taken from patent US20260151494A1.

- target-or-test-system: T1, apical domain of human CD71 (human, UniProt P02786 189-383, limits assumed)
- T1 construct: domain: apical domain; Screen 4 panned on human apical domains, the ELISA text says only 'apical domain'
- T1 sequence (P02786 189-383 limits assumed): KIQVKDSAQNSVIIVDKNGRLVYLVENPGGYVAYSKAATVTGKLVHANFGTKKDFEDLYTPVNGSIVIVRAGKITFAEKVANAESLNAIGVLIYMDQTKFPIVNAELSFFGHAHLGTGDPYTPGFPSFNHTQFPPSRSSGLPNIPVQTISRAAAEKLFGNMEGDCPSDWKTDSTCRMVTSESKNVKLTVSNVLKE
- measurement-protocol: primary ELISA, RLU over HSA
observable: Apical domain:HSA

Inquiry: # get_value(readout='Apical domain:HSA', item= CD71-binding FN3 domain of SEQ ID NO: 489 (designed binder) MLAPKNLVVSRVTEDSARLSWTAPDAAFDSFFIGYLEPQPPGEAISLLVPGSERSYDLTGLKPGTEYNVTIQGVKGGFPSSPLLAGFTT )
Reply text: 340
